Exercise: state measured normalized growth for each of the compounds provided.
# test: chemical genetic growth profiling, strain panel (AID 1159580);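 also: tested at 20 µM; growth read once vehicle control cultures reached saturation at 30 °C; 1 = growth at the plate median or of vehicle wells; lower values mean less growth of the strain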
# reported.conditions: S. cerevisiae deletion strains, growth OD, locus YKL190W, strain CNB1, hits give low values
In all, about 5,500 compounds went through this assay and about 2,000 (36%) were called active. Inconclusive results (about 18%) are left out. The list shows a part of the results.
One number for each entry.

Some solved cases for reference:
- compound: "C/C=C1\\[C@H]2C=C(C)C[C@]1(N)c1ccc(=O)[nH]c1C2"
  normalized growth: 1.01
- compound: "CC1(C)CC[C@]2(C(=O)O)CC[C@]3(C)C(=CCC4[C@@]5(C)CC[C@H](O)[C@@](C)(CO)C5CC[C@]43C)C2C1 (stereo partly specified)"
  normalized growth: 1.02
- compound: "NNc1nncc2ccccc12"
  normalized growth: 1
- compound: "CC(=O)OC1CC[C@@]2(C)C(CC[C@]3(C)C2CCC2C4CC(C)(C)CCC4(C(=O)O)CC[C@]23C)C1(C)C (stereo partly specified)"
  normalized growth: 0.996

Give one value of normalized growth per listed compound.
1. Nc1c2ccccc2nc2ccccc12 (tested in a mixture with another compound)
2. COc1cc(C2OC(c3cc(C)ccc3[N+](=O)[O-])=NN2C(C)=O)cc(OC)c1OC (stereo unspecified)
3. NNC(=O)c1ccncc1
4. Nc1c2c(nc3ccccc13)CCCC2
5. COc1ccc2c(c1)c(CC(=O)O)c(C)n2C(=O)c1ccc(Cl)cc1

[0.717, 0.993, 0.992, 1.02, 1.01]

---

# test: chemical genetic growth profiling, strain panel (AID 1159580);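 also: tested at 20 µM; growth read once vehicle control cultures reached saturation at 30 °C; 1 = growth at the plate median or of vehicle wells; lower values mean less growth of the strain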
# reported.conditions: S. cerevisiae deletion strains, growth OD, locus YOR106W, strain vam3, hits give low values
About 2,000 (36%) of roughly 5,500 compounds were called active. About 18% were inconclusive and are not listed. Some of the results follow.
Kindly supply the reported normalized growth values for the records listed here.
One number for each entry.

Field: example entries. Status: answers known.
- compound: "OC(CCN1CCCC1)(c1ccccc1)C1CCCCC1 (configuration not stated)"
  quantity.kind: "normalized growth"
  value.measured: 0.979
- compound: "CC(C)=CCCC1(C)C=Cc2c(O)c3c(c(CC=C(C)C)c2O1)OC12C(=CCCC1C(C)(C)O[C@@]2(C/C=C(\\C)C(=O)O)C(=O)O)C3=O (some centres not stated)"
  quantity.kind: "normalized growth"
  value.measured: 0.697
- compound: "CNCc1ccccc1"
  quantity.kind: "normalized growth"
  value.measured: 1.04
- compound: "COc1c(-c2coc3cc4c(cc3c2=O)CC(OC(C)=O)C(C)(C)O4)ccc2c1C=CC(C)(C)O2 (configuration not stated)"
  quantity.kind: "normalized growth"
  value.measured: 1.06
- compound: "CC(C)(Sc1cc(C(C)(C)C)c(O)c(C(C)(C)C)c1)Sc1cc(C(C)(C)C)c(O)c(C(C)(C)C)c1"
  quantity.kind: "normalized growth"
  value.measured: 0.98

Provide normalized growth values for the following items, in order.
1. Nc1ccc(S(=O)(=O)Nc2cnc3ccccc3n2)cc1
2. Cc1ccc(S(=O)(=O)NC(=O)NN2CC3CCCC3C2)cc1 (configuration not stated)
3. CC(C)=CCCC1(C)C=Cc2c(O)c3c(c(CC=C(C)C)c2O1)OC12C(=CC4CC1C(C)(C)OC2(C/C=C(/C)C(=O)O)C4=O)C3=O (configuration not stated)

1.03
0.968
0.662

Below is a list of compounds. For each, state its recorded normalized growth.
1. Cc1cc(O)cc(O)c1C(=O)O
2. NC(Cc1c[nH]c2ccccc12)C(=O)O (configuration not stated)

[0.98, 1]

Record normalized growth per entry; entries follow.
1. Cc1cc(O)ccc1Cl
2. C/C=C1\[C@H]2C=C(C)C[C@]1(N)c1ccc(=O)[nH]c1C2
3. C#C[C@]1(O)CCC2C3CCC4=CC(=O)CC[C@@H]4C3CC[C@@]21CC (some centres not stated)
4. C[C@@H]1CC[C@H]2[C@@H](C)C(=O)O[C@@H]3O[C@@]4(C)CC[C@@H]1[C@]32OO4
5. O=c1[nH]cc(F)c(=O)[nH]1
6. COc1c(-c2coc3cc4c(cc3c2=O)CC(O)C(C)(C)O4)ccc2c1C=CC(C)(C)O2 (configuration not stated)
7. Cc1ccnc(NS(=O)(=O)c2ccc(N)cc2)n1

[0.976, 1.01, 0.997, 0.784, 0.394, 0.962, 0.975]

For each of the compounds below, state normalized growth.
1. Nc1ccc(S(=O)(=O)c2ccc(N)cc2)cc1
2. CC1(C)CC[C@]2(C(=O)O)CC[C@]3(C)C(=CCC4[C@@]5(C)CC[C@@H](O)C(C)(C)C5CC[C@]43C)C2C1 (some centres not stated)
3. Cc1cc(O)cc(=O)o1
4. NC(N)=N/N=C/c1c(Cl)cccc1Cl
5. C#C[C@]1(OC(C)=O)CCC2C3CCC4=CC(=O)CC[C@@H]4C3CC[C@@]21C (some centres not stated)

1.01
1.03
0.999
0.993
0.982
